- System: E. coli
- Test Details: Minimum Bactericidal Concentration (MBC) assay (CAMHB)
- Type: cell-based, Escherichia coli
- Stated Conditions: Table 4, all ΔΔ- enantiomers
Measured Quantity: MBC E. coli (µg/mL)
Give bare numbers, in µg/mL.

MBC E. coli for Cc1ccnc(-c2cc(CCCCCCCCCCCCCCCCc3ccnc(-c4cc(C)ccn4)c3)ccn2)c1.[Cl-].[Cl-].[Cl-].[Cl-].[Ru+2].[Ru+2].c1cnc2c(c1)ccc1cccnc12.c1cnc2c(c1)ccc1cccnc12.c1cnc2c(c1)ccc1cccnc12.c1cnc2c(c1)ccc1cccnc12 [Rubb16, [{Ru(phen)2}2(μ-bb16)]Cl4] ?
2
